Read-out: Glyceraldehyde-3-phosphate dehydrogenase (Homo sapiens)
Assay: CLD_GAPDH_24hr: CellzDirect (CLD) Gene Expression Assay for Baseline Control (Glyceraldehyde 3-phosphate dehydrogenase) at 24 hours (AID 2283692)
Inconclusive results are not listed. Active and inactive are the calls of the source. How the source made its calls: active means hit-call score of the fitted dose curve at least 0.9, where 1 is the maximum; inconclusive means response in the unintended direction; inactive means score below 0.9.
endpoint_label: outcome

* O=C(O)COc1nc(Cl)c(Cl)cc1Cl | inactive
* COP(N)(=O)SC (configuration not stated) | inactive
* COP(=S)(OC)Oc1nc(Cl)c(Cl)cc1Cl | inactive
* COC(=O)C=C(C)OP(=O)(OC)OC | inactive
* N#Cc1cc(Br)c(O)c(Br)c1 | inactive

I am curious: what outcome value has been reported for `Cc1ccc(-c2c(Cl)nc(C#N)n2S(=O)(=O)N(C)C)cc1` ?
inactive

Consider next the compound `COC(=O)c1ccccc1C(=O)OC` in the same way.
inactive

Consider next the compound COC(=O)C(C)Oc1ccc(Oc2ccc(Cl)cc2Cl)cc1 (configuration not stated) in the same way.
inactive
